system: T1, human [1-157]-mouse chimeric EL with C2 tag (human; mouse) (UniProt Q9WVG5)
T1 sequence: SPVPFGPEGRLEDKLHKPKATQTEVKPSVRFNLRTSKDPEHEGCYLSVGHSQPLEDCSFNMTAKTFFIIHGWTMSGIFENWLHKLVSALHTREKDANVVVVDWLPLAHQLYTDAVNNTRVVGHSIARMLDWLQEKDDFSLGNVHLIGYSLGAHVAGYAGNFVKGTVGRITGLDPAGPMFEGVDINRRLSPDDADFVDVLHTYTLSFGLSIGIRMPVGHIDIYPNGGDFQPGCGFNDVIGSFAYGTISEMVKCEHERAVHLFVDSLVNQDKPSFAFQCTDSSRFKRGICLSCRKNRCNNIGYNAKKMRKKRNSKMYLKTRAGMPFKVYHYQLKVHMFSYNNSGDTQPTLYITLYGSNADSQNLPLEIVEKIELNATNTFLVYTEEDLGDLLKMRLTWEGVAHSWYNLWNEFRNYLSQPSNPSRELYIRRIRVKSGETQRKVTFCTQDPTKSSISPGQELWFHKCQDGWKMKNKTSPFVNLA
run-description: ELISA: antibody captured on anti-mouse IgG-Fc plate, C2-tagged EL heparin extract added, anti-C2-tag detection, A450 (Example 8)
attribute-measured: EC50 (read off the curve) (ng/mL)
Please give a number only; it is taken to be in ng/mL.

55A1 antibody (antibody, V domains shown) VH: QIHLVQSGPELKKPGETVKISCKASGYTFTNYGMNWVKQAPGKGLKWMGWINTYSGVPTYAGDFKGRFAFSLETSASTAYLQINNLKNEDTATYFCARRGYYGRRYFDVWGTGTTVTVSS VL: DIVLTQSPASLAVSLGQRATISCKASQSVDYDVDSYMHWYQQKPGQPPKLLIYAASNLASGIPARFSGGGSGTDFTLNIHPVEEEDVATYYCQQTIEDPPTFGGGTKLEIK    4
13B3 antibody (antibody, V domains shown) VH: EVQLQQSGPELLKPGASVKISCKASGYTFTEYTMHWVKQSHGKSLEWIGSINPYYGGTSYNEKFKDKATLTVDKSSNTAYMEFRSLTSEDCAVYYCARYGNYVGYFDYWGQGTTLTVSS VL: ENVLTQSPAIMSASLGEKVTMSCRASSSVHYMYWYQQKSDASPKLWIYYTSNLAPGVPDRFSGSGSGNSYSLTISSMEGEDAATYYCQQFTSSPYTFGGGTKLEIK    4
7D4 antibody (antibody, V domains shown) VH: QIQLVQSGPELKKPGETVKISCKASGYTFTNYGMNWVKQAPGKDLKWMGWINTYSGVPTYADDFKGRFAFSLETSASTAYLQINNLKNEDTATYFCARFSYYGRHYFDYWGQGTTLTVSS VL: DIVLTQSPASLAVSLGQRATISCKASQSVDYDGDSYMNWYQQKPGQPPQLLIYAASNLGSGIPARFSGSGSGTDFTLNIHPVEEEDAATYYCHQSTDDPPWTFGGGTKLEIK    6

Let us examine a further case.
Record summary for 53A11 antibody (antibody, V domains shown) VH: EVQLQQSGPELLKPGASVKISCKASGYTFTDYTMHWVKQSHGKSLEWIGGINPYYGGTTYNEKFKDKATLTVDKSSSTAYMELRSLTSEDSAVYYCAKGDYYGGSYNYWGQGTTLTVSS VL: DIVLTQSLATLSVTPGDSVSLSCRASQDISNSLHWYQQKSHESPRLLIKYASQSISGIPSRFSGSGSGTDFTLSINSVETEDFGMYFCQQSNSWPYTFGGGTKLEIK : reported EC50 (read off the curve) = 6
